Target: Adenosine receptor A2a (Rattus norvegicus, UniProt P30543)
Sequence (P30543 whole entry): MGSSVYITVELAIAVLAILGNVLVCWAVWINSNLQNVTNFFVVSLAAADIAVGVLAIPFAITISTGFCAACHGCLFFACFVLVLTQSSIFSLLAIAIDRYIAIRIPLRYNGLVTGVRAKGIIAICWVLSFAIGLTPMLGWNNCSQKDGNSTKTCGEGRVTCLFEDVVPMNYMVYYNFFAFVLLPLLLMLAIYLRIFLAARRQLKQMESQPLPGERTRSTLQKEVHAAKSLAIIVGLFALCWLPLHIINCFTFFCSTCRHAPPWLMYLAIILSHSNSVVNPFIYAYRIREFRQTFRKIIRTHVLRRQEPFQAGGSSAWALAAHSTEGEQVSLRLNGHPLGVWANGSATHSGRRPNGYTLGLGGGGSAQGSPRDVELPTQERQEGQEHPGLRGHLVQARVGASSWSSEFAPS
Assay: Antagonist activity at adenosine A2A receptor in 5-HT-treated Wistar rat femoral vein assessed as inhibition of 2-octyn-1-yladenosine-induced vasodilation incubated for 10 mins prior to addition of 5-HT
parameter: IC50 (nM)

[
  {
    "sample smiles": "CCCCCCC#Cc1nc(N)c2ncn(CC)c2n1",
    "IC50 (nM)": 6700
  },
  {
    "sample smiles": "C#CCn1cnc2c(N)nc(C#CCCCCCC)nc21",
    "IC50 (nM)": 200
  },
  {
    "sample smiles": "C#CCn1cnc2c(N)nc(C#CC3(O)CCCCC3)nc21",
    "IC50 (nM)": 97.3
  },
  {
    "sample smiles": "C#CCn1c(-c2cccc(F)c2)nc2c(N)nc(C#CCCCCCC)nc21",
    "IC50 (nM)": 22.8
  },
  {
    "sample smiles": "C#CCn1c(-c2ccco2)nc2c(N)nc(C#CC3(O)CCCCC3)nc21",
    "IC50 (nM)": 0.4
  }
]

A: CCCCCCC#Cc1nc(N)c2ncn(C)c2n1
B: C#CCn1c(-c2ccco2)nc2c(N)nc(C#CCCCCCC)nc21
Given A and given B , which shows the smaller recorded IC50? Returns: label corresponding to the selected item.
B
(B: 3.6 nM, A: 9000 nM)

a: C#CCn1c(Cl)nc2c(N)nc(C#CCCCCCC)nc21
b: C#CCn1c(-n2nccn2)nc2c(N)nc(C#CCCCCCC)nc21
Identify the entry with the larger IC50. Options: a and b Returns: label corresponding to the selected item.
a

---

Biological target: Adenosine receptor A2a (Rattus norvegicus, UniProt P30543)
Assay: Antagonist activity at adenosine A2A receptor in 5-HT-treated Wistar rat femoral vein assessed as inhibition of 2-octyn-1-yladenosine-induced vasodilation incubated for 10 mins prior to addition of 5-HT
pIC50: −log10 of the molar value.
parameter: pIC50

A: C#CCn1c(Br)nc2c(N)nc(C#CC3(O)CCCCC3)nc21
B: C#CCn1c(Cl)nc2c(N)nc(C#CC3(O)CCCCC3)nc21
C: C#CCn1c(-c2ccccc2)nc2c(N)nc(C#CCCCCCC)nc21
D: C#CCn1c(Br)nc2c(N)nc(C#CCCCCCC)nc21
sort_by: pIC50; order: ascending; scope: items listed above Note for the reader: the ranking is given by listing the labels in the order requested.
C, D, B, A
(C: 7.12, D: 8.29, B: 8.52, A: 9.30)

Reference source for all entries: ChEMBL document CHEMBL3286130
